# SUBJECT_OF_TEST: human GLP-1 receptor (human, UniProt P43220 24-463)
# ASSAY_NOTES: cell-based or functional assay
Positions of bridges follow the written chain, without caps; N, C: chain ends. Non-standard residues stand in square brackets, D forms with d. No end group written: not given here. *: point of attachment. Acetyl(2-(4-imidazolyl)) = O=C(Cc1c[nH]cn1)*; Aib = CC(C)(N)C(=O)O
# maps each entry to its In vitro Activity Compared to Native Peptide (%) vs. GLP-1
Expressed in %, but write only the number.

BINDER	UNITS_OF_MEASURE	MEASURED_VALUE
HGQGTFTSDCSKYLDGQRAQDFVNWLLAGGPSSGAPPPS [triple agonist of SEQ ID NO: 48]	%	1.5
H[Aib]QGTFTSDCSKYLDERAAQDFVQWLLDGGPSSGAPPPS [triple agonist of SEQ ID NO: 25]	%	82.6
[Acetyl(2-(4-imidazolyl))]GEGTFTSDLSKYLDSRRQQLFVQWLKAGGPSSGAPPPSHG [triple agonist of SEQ ID NO: 11]	%	1.4

*Q* Look up In vitro Activity Compared to Native Peptide (%) vs. GLP-1 for this binder: H[Aib]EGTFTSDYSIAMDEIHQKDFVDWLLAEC (bridge 16-20) [triple agonist of SEQ ID NO: 54]
*A* 30.6

*Q* Given [Acetyl(2-(4-imidazolyl))][Aib]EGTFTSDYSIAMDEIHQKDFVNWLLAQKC (bridge 16-20) [triple agonist of SEQ ID NO: 90] , state its recorded In vitro Activity Compared to Native Peptide (%) vs. GLP-1.
*A* 7.4

*Q* Could you tell me which In vitro Activity Compared to Native Peptide (%) vs. GLP-1 is on file for Y[Aib]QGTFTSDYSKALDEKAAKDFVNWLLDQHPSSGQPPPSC (bridge 16-20) [triple agonist of SEQ ID NO: 102] ?
*A* 23.3

*Q* I am curious: what In vitro Activity Compared to Native Peptide (%) vs. GLP-1 value has been reported for H[Aib]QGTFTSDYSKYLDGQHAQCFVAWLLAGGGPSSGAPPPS [triple agonist of SEQ ID NO: 39] ?
*A* 13.9

*Q* Requested field: In vitro Activity Compared to Native Peptide (%) vs. GLP-1. Item: H[Aib]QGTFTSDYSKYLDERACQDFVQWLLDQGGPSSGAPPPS [triple agonist of SEQ ID NO: 27]
*A* 83.1

*Q* Using the record for H[Aib]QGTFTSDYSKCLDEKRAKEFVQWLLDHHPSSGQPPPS (bridge 16-20) [triple agonist of SEQ ID NO: 65] , report its In vitro Activity Compared to Native Peptide (%) vs. GLP-1.
*A* 95.4
